Experiment: Trial 000015 Part 2: pharmacokinetics after multiple intranasal administrations
Type: in vivo, human
Condition: female, human, plasma, inhaled or intranasal, 50 ug, multiple i.n. doses every 3 hours, 50 μg, Dose No. 16; read-out: Cmax Median
*1 amine or outer side, *2 acyl side, *3 side chain or, on linkers, in order; H or OH if unused. Where a SMILES comes first, the peptide text is derived from it. Bridges are numbered along the chain shown (N, C = ends). [ ]: non-standard residue; d: D form. N(4-F-Bzl)Gly = O=C(O)CNCc1ccc(F)cc1; X1 = O=C(CCC[*:2])[*:1]
Endpoint: Cmax (ng/mL)

1. CC[C@H](C)[C@@H]1NC(=O)[C@H](Cc2ccc(O)cc2)NC(=O)CCCSC[C@@H](C(=O)N(CC(=O)N[C@@H](CC(C)C)C(=O)NCC(N)=O)Cc2ccc(F)cc2)NC(=O)[C@H](CC(N)=O)NC(=O)[C@H](CCC(N)=O)NC1=O [merotocin] (YIQNC[N(4-F-Bzl)Gly]LG-NH2; linker N-5 via X1) = 0.0266
